- target-of-assay: full-length AAK1 (Homo sapiens)
- Sequence (Q2M2I8 whole entry): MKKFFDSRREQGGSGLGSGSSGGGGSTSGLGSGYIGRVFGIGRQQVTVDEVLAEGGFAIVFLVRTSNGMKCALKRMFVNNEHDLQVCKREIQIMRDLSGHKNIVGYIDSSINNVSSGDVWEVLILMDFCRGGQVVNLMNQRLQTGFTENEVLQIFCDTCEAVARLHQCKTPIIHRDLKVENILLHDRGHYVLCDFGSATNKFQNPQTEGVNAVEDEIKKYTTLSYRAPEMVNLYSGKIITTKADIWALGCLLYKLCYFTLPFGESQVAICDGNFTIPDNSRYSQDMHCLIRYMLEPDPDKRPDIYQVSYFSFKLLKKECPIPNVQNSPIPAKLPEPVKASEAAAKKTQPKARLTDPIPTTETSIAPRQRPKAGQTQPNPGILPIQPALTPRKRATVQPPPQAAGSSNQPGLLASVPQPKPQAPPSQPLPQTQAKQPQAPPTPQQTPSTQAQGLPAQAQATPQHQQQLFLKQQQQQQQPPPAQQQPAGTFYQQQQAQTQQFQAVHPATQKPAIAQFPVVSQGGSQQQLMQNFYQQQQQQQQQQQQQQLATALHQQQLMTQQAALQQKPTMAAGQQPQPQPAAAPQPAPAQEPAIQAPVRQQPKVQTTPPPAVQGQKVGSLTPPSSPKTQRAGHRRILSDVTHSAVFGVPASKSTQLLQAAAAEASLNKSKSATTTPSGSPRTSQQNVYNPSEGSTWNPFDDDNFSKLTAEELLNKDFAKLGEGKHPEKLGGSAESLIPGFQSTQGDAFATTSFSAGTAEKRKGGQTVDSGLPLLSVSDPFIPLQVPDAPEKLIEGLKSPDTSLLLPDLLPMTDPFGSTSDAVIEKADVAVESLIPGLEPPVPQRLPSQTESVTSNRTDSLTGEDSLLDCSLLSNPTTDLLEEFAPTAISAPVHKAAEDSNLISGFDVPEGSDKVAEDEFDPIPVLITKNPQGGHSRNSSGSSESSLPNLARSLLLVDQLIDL
- assay-method-text: cell-based
- Design: species or system HEK293T; NanoBRET tracer displacement in permeabilized cells, NanoLuc fusion protein, Tracer K10
- conditions-used: permeabilized cells; read-out: AAK1 permeabilized (IC50±sd)/µM
assay-endpoint: IC50 (µM)
Write the number in µM without appending the unit.

Briefly, IC50 measured for Cc1ncsc1-c1ccc(CNC(=O)[C@@H]2C[C@H](O)CN2C(=O)[C@@H](NC(=O)CCOCCOCCOCCN2CCN(c3cc(Nc4cc(C5CC5)[nH]n4)nc(Nc4ccc(CC#N)cc4)n3)CC2)C(C)(C)C)cc1 : 0.04

====

- target-of-assay: AURKA (Homo sapiens, UniProt O14965)
- Sequence (O14965 whole entry): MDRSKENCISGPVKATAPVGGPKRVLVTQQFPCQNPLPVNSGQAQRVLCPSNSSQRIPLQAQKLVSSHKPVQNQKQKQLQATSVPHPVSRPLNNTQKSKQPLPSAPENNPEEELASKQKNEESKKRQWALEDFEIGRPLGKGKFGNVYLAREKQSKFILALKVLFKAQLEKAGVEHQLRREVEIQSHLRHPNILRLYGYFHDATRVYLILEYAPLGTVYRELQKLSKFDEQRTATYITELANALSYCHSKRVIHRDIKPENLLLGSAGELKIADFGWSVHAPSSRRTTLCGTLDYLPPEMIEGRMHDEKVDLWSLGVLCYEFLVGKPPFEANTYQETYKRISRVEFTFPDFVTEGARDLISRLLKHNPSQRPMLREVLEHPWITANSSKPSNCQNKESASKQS
- assay-method-text: NanoBRET target engagement assay, intact and permeabilized cells
- conditions-used: AURKA intact (IC50±sd)/μM, intact cells, mean of duplicates, ^a values estimated by extrapolation
Each record here notes measured log10 of IC50.
Answers are given as log10 of IC50 in µM.

Example compounds with recorded log10 of IC50:
{"structure-notation": "Cc1ncsc1-c1ccc(CNC(=O)[C@@H]2C[C@@H](O)CN2C(=O)[C@@H](NC(=O)CCCCCCN2CCN(c3ccc(Nc4ncc(Cl)c(Nc5ccccc5C(N)=O)n4)cc3)CC2)C(C)(C)C)cc1", "assay-result": -0.43}
{"structure-notation": "Cc1ncsc1-c1ccc(CNC(=O)[C@@H]2C[C@@H](O)CN2C(=O)[C@@H](NC(=O)CCOCCOCCOCCN2CCN(c3cc(Nc4cc(C5CC5)[nH]n4)nc(Nc4ccc(CC#N)cc4)n3)CC2)C(C)(C)C)cc1", "assay-result": 0.57}
{"structure-notation": "CC(C)(C)OC(=O)NCCOCCOCCOCCOCCC(=O)N1CCN(c2cc(Nc3cc(C4CC4)[nH]n3)nc(Nc3ccc(CC#N)cc3)n2)CC1", "assay-result": 0.28}
{"structure-notation": "Cc1ncsc1-c1ccc(CNC(=O)[C@@H]2C[C@@H](O)CN2C(=O)[C@@H](NC(=O)CCOCCOCCOCCOCCN2CCN(c3ccc(Nc4ncc(Cl)c(Nc5ccccc5C(N)=O)n4)cc3)CC2)C(C)(C)C)cc1", "assay-result": -0.38}
{"structure-notation": "CCOC(=O)c1cc(Nc2cc(C3CC3)[nH]n2)nc(Nc2ccc(CC#N)cc2)n1", "assay-result": -0.24}

Okay, now this compound:
Briefly, log10 of IC50 measured for CC(=O)N[C@H](C(=O)N1C[C@H](O)C[C@H]1C(=O)NCc1ccc(-c2scnc2C)cc1OCCOCCOCCOCCOCCC(=O)N1CCN(c2cc(Nc3cc(C4CC4)[nH]n3)nc(Nc3ccc(CC#N)cc3)n2)CC1)C(C)(C)C : 0.66
